# target_entity: human IL-23R (Homo sapiens)
# Sequence (Q5VWK5 22-629): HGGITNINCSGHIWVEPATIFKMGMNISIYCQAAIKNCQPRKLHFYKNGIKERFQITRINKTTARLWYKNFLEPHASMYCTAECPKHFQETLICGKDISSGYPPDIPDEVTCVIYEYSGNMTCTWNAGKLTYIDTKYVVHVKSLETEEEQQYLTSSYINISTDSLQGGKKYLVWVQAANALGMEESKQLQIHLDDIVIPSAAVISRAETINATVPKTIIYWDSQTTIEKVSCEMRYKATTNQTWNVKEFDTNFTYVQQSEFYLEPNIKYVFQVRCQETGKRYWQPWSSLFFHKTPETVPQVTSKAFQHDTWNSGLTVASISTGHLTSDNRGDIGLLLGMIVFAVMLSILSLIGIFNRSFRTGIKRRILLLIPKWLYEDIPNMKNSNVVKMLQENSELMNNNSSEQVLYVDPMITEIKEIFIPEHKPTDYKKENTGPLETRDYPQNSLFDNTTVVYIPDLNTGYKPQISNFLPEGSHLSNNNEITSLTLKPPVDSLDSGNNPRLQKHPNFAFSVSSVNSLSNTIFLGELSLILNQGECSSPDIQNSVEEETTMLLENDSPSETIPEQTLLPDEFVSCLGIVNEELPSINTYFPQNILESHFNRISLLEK
# protocol_description: biochemical
*1 amine or outer side, *2 acyl side, *3 side chain or, on linkers, in order; H or OH if unused. Where a SMILES comes first, the peptide text is derived from it. Bridges are numbered along the chain shown (N, C = ends). [ ]: non-standard residue; d: D form. hAad = O=C([C@H](CCCCC(=O)[*:3])N[*:1])[*:2]; 2Nal = N[C@@H](Cc1ccc2ccccc2c1)C(=O)O; AEF = NCCOc1ccc(C[C@H](N)C(=O)O)cc1; X1 = O=C(Cc1ccc(CN[*:1])cc1)[*:2]; 3Pal = N[C@@H](Cc1cccnc1)C(=O)O; αMeL = CC(C)C[C@](C)(N)C(=O)O; CH2COCH2 = O=C(C[*:1])C[*:2]; dDab = NCC[C@@H](N)C(=O)O; Dab = NCC[C@H](N)C(=O)O
endpoint: % displacement (hIL-23R NIuc) (%)
Write it as a number; the unit % goes unstated.

Before answering, review these 2 worked examples.
compound | unit_abbrev | result
CC(C)C[C@]1(C)NC(=O)[C@H](Cc2ccc3ccccc3c2)NC(=O)[C@H](Cc2ccc(OCCN)cc2)NC(=O)[C@@H]2CCC(=O)N[C@@H](CCCCNC(=O)CC[C@@H](C(=O)NCCCCc3cccnc3)NC1=O)C(=O)N[C@@H](CO)C(=O)N[C@@H](C(C)C)C(=O)N[C@@H](Cc1c[nH]c3ccccc13)C(=O)N[C@@H](CCC(N)=O)C(=O)N2 | % | 101
CC[C@H](C)[C@@H]1NC(=O)[C@@H]2CCCCNC(=O)CC[C@@H](C(=O)NCCCCc3cccnc3)NC(=O)[C@](C)(C(C)C)NC(=O)[C@H](Cc3ccc4ccccc4c3)NC(=O)[C@H](Cc3ccc(OCCN)cc3)NC(=O)[C@H](CCC(=O)N2)NC(=O)[C@H](CCC(N)=O)NC(=O)[C@H](Cc2c[nH]c3ccccc23)NC(=O)[C@H](C(C)C)NC1=O | % | 97

Query :: Param item = CNC(=O)[C@H](Cc1cccnc1)NC(=O)[C@H](CCN)NC(=O)[C@@H]1CCC(=O)NCCCC[C@@H]2NC(=O)CC[C@H](NC(=O)[C@H](CCC(N)=O)NC(=O)[C@H](Cc3c[nH]c4ccccc34)NC(=O)CCNC2=O)C(=O)N[C@@H](Cc2ccc(OCCN)cc2)C(=O)N[C@@H](Cc2ccc3ccccc3c2)C(=O)N[C@@](C)(CC(C)C)C(=O)N1 ; retrieve measured % displacement (hIL-23R NIuc).
Result :: 100

Query :: Param item = COc1ccc(C[C@@H]2NC(=O)[C@@H]3CCC(=O)N[C@@H](CCCCNC(=O)CC[C@@H](C(=O)N[C@@H](CCCCNC(=O)c4cccnc4)C(N)=O)NC(=O)[C@](C)(CC(C)C)NC(=O)[C@H](Cc4ccc5ccccc5c4)NC2=O)C(=O)N[C@@H]([C@@H](C)O)C(=O)N[C@@H](C(C)C)C(=O)N[C@@H](Cc2c[nH]c4ccccc24)C(=O)N[C@@H](CCC(N)=O)C(=O)N3)cc1 ; retrieve measured % displacement (hIL-23R NIuc).
Result :: 98

Query :: Param item = CC(C)C[C@]1(C)NC(=O)[C@H](Cc2ccc3ccccc3c2)NC(=O)[C@H](Cc2ccc(OCCN)cc2)NC(=O)[C@@H]2CCC(=O)N[C@H](CCNC(=O)CCCC[C@@H](C(=O)N[C@@H](CCN)C(=O)N[C@@H](Cc3cccnc3)C(N)=O)NC1=O)C(=O)N[C@@H]([C@@H](C)O)C(=O)N[C@@H](C(C)C)C(=O)N[C@@H](Cc1c[nH]c3ccccc13)C(=O)N[C@@H](CCC(N)=O)C(=O)N2 [Compound 7] ([dDab]TVWQE[AEF][2Nal][αMeL][hAad][Dab][3Pal]-NH2; lactam 1-10, N-6) ; retrieve measured % displacement (hIL-23R NIuc).
Result :: 104

Query :: Param item = CC(C)C[C@]1(C)NC(=O)[C@H](Cc2ccc3ccccc3c2)NC(=O)[C@H](Cc2ccc(OCCN)cc2)NC(=O)[C@@H]2CSCC(=O)CSC[C@H](NC(=O)[C@H](CO)NC(=O)Cc3ccc(cc3)CNC(=O)CC[C@@H](C(=O)N[C@H](CCCNC(=N)N)C(N)=O)NC1=O)C(=O)N[C@@H](Cc1c[nH]c3ccccc13)C(=O)N[C@@H](CCC(N)=O)C(=O)N2 [Ref 80, reference compound] ([X1]SCWQC[AEF][2Nal][αMeL]E[dR]-NH2; linker 3-6 via CH2COCH2; lactam N-10) ; retrieve measured % displacement (hIL-23R NIuc).
Result :: 98
